biological target: T1, recombinant sCD4 comprising the full-length extracellular domain of human CD4 (human, UniProt P01730 26-396); experiment: SPR (Biacore), antibody amine-coupled on the chip, human sCD4 as analyte, 25 C, 1:1 Langmuir fit
T1 construct: also called human soluble CD4; human sCD4 protein
Could you please report measured kon for the items listed next?
Express the result in M⁻¹ s⁻¹ but write the number alone.

Task: Returns the measured kon for the input binder. Input: LM30E, ibalizumab light chain mutant with an N-linked glycosylation site at position 30E (antibody, human IgG1, kappa, V domains shown) VH: QVQLQQSGPEVVKPGASVKMSCKASGYTFTSYVIHWVRQKPGQGLDWIGYINPYNDGTDYDEKFKGKATLTSDTSTSTAYMELSSLRSEDTAVYYCAREKDNYATGAWFAYWGQGTLVTVSS VL: DIVMTQSPDSLAVSLGERVTMNCKSSQSLLYSTNNATYLAWYQQKPGQSPKLLIYWASTRESGVPDRFSGSGSGTDFTLTISSVQAEDVAVYYCQQYYSYRTFGGGTKLEIKR
Output: 110000

Task: Returns the measured kon for the input binder. Input: LM76, ibalizumab light chain mutant with an N-linked glycosylation site at position 76 (antibody, human IgG1, kappa, V domains shown) VH: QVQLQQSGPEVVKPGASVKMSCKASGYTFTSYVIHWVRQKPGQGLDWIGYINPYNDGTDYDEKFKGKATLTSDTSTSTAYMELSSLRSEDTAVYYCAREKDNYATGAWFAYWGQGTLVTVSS VL: DIVMTQSPDSLAVSLGERVTMNCKSSQSLLYSTNQKNYLAWYQQKPGQSPKLLIYWASTRESGVPDRFSGSGSGTDFTLTINATQAEDVAVYYCQQYYSYRTFGGGTKLEIKR
Output: 500000

Task: Returns the measured kon for the input binder. Input: LM65, ibalizumab light chain mutant with an N-linked glycosylation site at position 65 (antibody, human IgG1, kappa, V domains shown) VH: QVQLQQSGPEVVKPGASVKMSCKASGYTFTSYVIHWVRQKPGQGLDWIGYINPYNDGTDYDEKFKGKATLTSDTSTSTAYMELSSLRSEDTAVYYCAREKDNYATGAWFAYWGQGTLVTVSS VL: DIVMTQSPDSLAVSLGERVTMNCKSSQSLLYSTNQKNYLAWYQQKPGQSPKLLIYWASTRESGVPDRFSGNATGTDFTLTISSVQAEDVAVYYCQQYYSYRTFGGGTKLEIKR
Output: 330000
